- target-entity: ram seminal vesicle COX-1 (Ovis aries)
- Construct: ram seminal vesicle COX-1 (1 U) (Sigma–Aldrich); purchased Sigma–Aldrich; host or cells: ram seminal vesicle (tissue of origin)
- Sequence (P05979 25-600): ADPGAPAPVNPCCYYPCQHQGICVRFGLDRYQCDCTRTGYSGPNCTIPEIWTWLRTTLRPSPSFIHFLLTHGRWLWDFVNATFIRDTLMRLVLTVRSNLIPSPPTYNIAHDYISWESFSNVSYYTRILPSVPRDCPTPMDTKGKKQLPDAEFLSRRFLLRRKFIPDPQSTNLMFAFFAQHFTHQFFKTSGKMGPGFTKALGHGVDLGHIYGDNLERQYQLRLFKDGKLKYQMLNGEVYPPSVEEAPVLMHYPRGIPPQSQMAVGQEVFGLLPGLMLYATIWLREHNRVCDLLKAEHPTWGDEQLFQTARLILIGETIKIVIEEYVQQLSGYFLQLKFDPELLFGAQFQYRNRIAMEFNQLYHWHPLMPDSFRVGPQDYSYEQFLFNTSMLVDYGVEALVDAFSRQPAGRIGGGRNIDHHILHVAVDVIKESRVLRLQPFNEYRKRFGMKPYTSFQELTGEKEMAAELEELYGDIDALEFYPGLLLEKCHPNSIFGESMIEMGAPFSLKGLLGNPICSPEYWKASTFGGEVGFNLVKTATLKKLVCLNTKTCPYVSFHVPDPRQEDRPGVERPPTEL
- procedure-summary: COX-1 inhibition assay (PGE2 EIA)
- Type: biochemical
- run-parameters: 20 µM, triplicates
reported-property: % inhibition at 20µM, COX-1 (%)
API: value field is a number in %; no unit string.

**Query** Consider the molecule O=S(=O)([O-])CCNc1ccc(S(=O)(=O)c2ccc(NCCS(=O)(=O)[O-])cc2)cc1.[Na+].[Na+] [Baludon] and give its measured % inhibition at 20µM, COX-1.
**Result** -8.4

**Query** Ok, now CC(C)(Oc1ccc(Cl)cc1)C(=O)OCCCOC(=O)c1cccnc1 [Ronifibrate]
**Result** 28.2

**Query** Would you mind doing CC(=O)Nc1ccc(-c2ccccc2)cc1 [p-phenylacetanilide] as well?
**Result** 5.8

**Query** Same read-out for O=S(=O)([O-])c1ccc(N=Nc2ccc(O)cc2O)cc1.[Na+] [Acid orange 6] ?
**Result** -1.2

**Query** And the next one, NS(=O)(=O)c1cc(C(=O)O)c(NCc2ccco2)cc1Cl [Furosemid] ?
**Result** -1.07

**Query** Moving on to [Cl-].c1ccc(-c2nn(-c3ccccc3)[n+](-c3ccccc3)n2)cc1 [Triphenyltetrazol]
**Result** 13.6

**Query** Same question for C#C[C@]1(O)CC[C@H]2[C@@H]3CCc4cc(OC)ccc4[C@H]3CC[C@@]21C [17α-ethinylestradiol-3-methylether] please.
**Result** 2.6
